Measured values drawn from ChEMBL document CHEMBL1131557 for this set.

- study_target: UniProtKB Q9JI35
- Sequence (Q9JI35 whole entry): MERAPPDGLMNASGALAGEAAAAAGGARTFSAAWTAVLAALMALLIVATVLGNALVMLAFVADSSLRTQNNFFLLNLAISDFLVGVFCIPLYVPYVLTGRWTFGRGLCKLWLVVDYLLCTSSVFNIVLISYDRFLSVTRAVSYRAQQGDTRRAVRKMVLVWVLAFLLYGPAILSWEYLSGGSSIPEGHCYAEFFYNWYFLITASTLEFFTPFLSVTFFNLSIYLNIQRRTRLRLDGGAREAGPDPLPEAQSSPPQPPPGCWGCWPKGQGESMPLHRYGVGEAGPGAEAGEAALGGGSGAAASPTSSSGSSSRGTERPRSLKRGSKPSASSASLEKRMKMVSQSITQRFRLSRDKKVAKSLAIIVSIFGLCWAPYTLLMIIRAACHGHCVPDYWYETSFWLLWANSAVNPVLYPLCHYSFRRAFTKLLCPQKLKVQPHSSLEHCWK
This section presents compounds with their documented Ki values.
reported_endpoint: Ki (nM)

[[record]]
compound = "C[C@H]1CNC[C@@H]1c1c[nH]cn1"
value_comparator = "="
value_measured = 2.3

[[record]]
compound = "c1ccc(C[C@H]2NCC[C@@H]2c2c[nH]cn2)cc1"
value_comparator = ">"
value_measured = 2000

[[record]]
compound = "C[C@H]1C[C@H](c2cnc[nH]2)CN1"
value_comparator = "="
value_measured = 76

[[record]]
compound = "C[C@H]1CNC[C@H]1c1c[nH]cn1"
value_comparator = "="
value_measured = 3

[[record]]
compound = "C[C@H]1NCC[C@@H]1c1c[nH]cn1"
value_comparator = "="
value_measured = 3

[[record]]
compound = "C[C@H]1NCCC[C@@H]1c1cnc[nH]1"
value_comparator = ">"
value_measured = 2000

[[record]]
compound = "c1nc(C2CCNC2)c[nH]1 (stereo not given)"
value_comparator = "="
value_measured = 2

[[record]]
compound = "CC[C@H]1NCC[C@@H]1c1cnc[nH]1"
value_comparator = "="
value_measured = 150

[[record]]
compound = "C[C@H]1NC[C@@H]1c1c[nH]cn1"
value_comparator = "="
value_measured = 7

[[record]]
compound = "C[C@@H]1NCC[C@@H]1c1c[nH]cn1"
value_comparator = "="
value_measured = 59


* * *

pKi: −log10 of the molar value.
For reference, pKi measured on Histamine H1 receptor (Cavia porcellus):
reported_endpoint: pKi

[[record]]
mol_smiles = "C[C@@H](N)Cc1c[nH]cn1"
value_measured = "< 5.00"

[[record]]
mol_smiles = "C[C@H]1CNC[C@@H]1c1c[nH]cn1"
value_measured = "< 5.00"

